Target: unphosphorylated VEGF-R2Δ50 (FLVK) (Homo sapiens, UniProt P35968, DEL940-989/E990V)
Construct: VEGF-R2Δ50 contains residues 806–939 and 990–1171; made in house; host or cells: baculovirus/insect cell system
Sequence (P35968 with tags, fused parts or gaps DEL940-989/E990V limits assumed): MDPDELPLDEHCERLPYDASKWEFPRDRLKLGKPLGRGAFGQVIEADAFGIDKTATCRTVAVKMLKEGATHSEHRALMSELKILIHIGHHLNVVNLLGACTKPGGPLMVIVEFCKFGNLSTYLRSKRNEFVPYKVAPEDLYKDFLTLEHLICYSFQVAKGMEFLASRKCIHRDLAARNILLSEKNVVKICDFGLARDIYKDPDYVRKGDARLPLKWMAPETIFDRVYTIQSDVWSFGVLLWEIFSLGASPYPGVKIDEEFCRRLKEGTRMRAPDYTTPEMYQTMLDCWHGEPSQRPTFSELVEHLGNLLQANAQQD
Assay: VEGF-R2 coupled spectrophotometric assay, unphosphorylated VEGF-R2Δ50 (FLVK)
Assay type: biochemical
Conditions: unphosphorylated VEGF-R2Δ50
I'd be grateful if you could share measured Ki for these entries.
Express the result in nM but write the number alone.

What the record says about Cc1sc2cc(Oc3ccnc4ccsc34)ccc2c1C(=O)NCCN1CCOCC1 [Example 133] : Ki is 5.9

What the record says about COC[C@@H]1CCCN1C(=O)c1cc2nccc(Oc3ccc4c(C(=O)NC(C)C)c(C)oc4c3)c2s1 [Example 82] : Ki is 0.884

What the record says about CNC(=O)c1c(C)sc2cc(Oc3ccnc4cc(C(=O)N5CC[C@@H](OC)C5)sc34)ccc12 [Example 4] : Ki is 2.58

What the record says about CNC(=O)c1c(C)n(C)c2cc(Oc3ccnc4cc(-c5nc(CO)cs5)sc34)ccc12 [Example 26] : Ki is 3.66
